test system: KB; experiment: Antiproliferative activity against human KB/HeLa cells assessed as reduction in cell viability; assay type: functional, cell-based; conditions: read-out: ED50 (the source's name)
pEC50: −log10 of the molar value.
quantity_measured: pEC50

-- ask So what's the measured pEC50 for this one? COc1cc(-c2oc3cc(OC)c(OC)c(O)c3c(=O)c2OC)ccc1O [CHRYSOSPLENOL B]
-- reply 5.81 to 6.48

----------
test: Toxicity in po dosed mouse; assay type: organism-based; details: in vivo
quantity_measured: LD50

-- ask So what's the measured LD50 for this one? `C[C@H]1O[C@@H](O[C@H]2[C@@H](O)C[C@H](O[C@H]3[C@@H](O)C[C@H](O[C@H]4CC[C@@]5(C)[C@H](CC[C@@H]6[C@@H]5CC[C@]5(C)[C@@H](C7=CC(=O)OC7)CC[C@]65O)C4)O[C@@H]3C)O[C@@H]2C)C[C@H](O)[C@@H]1O`
-- reply 10 to 80 mg/kg

----------
tested on: P388; test: Antiproliferative activity against mouse P388 cells assessed as reduction in cell viability; type: functional, cell-based; details: read-out: ED50 (the source's name)
quantity_measured: EC50

-- ask So what's the measured EC50 for this one? `COc1cc(-c2oc3cc(OC)c(OC)c(O)c3c(=O)c2OC)ccc1O`
-- reply 330 to 1560 nM

----------
system: A549; assay: Antiproliferative activity against human A549 cells assessed as reduction in cell viability after 48 hrs by MTT assay; assay type: functional, cell-based; details: A549, 48 h
pIC50: −log10 of the molar value.
Values of pIC50 greater than or equal to 6 map to rule met; values below map to rule not met.

molecule: COCOc1cc2c(c(O)c1Br)C(=O)C1=CC3CC4C(C)(C)OC(C/C=C(\C)CO)(C3=O)C14O2 (stereo not drawn)
experimental_target: A549
answer_label: rule met

-- ask Record COCOc1cc(O)c2c(c1)OC13C(=CC4CC1C(C)(C)OC3(CC1OC1(C)C)C4=O)C2=O (stereo not drawn) ; criterion: pIC50 no lower than 6. Met?
-- reply rule not met

-- ask Next molecule up: COCOc1cc(O)c2c(c1)OC13C(=CC4CC1C(C)(C)OC3(CC=C(C)C)C4=O)C2=O (stereo not drawn)
-- reply rule not met

-- ask Next molecule up: CC(C)=CCC12OC(C)(C)C3CC(C=C4C(=O)c5c(O)cc(O)cc5OC431)C2=O (stereo not drawn)
-- reply rule not met

-- ask Next molecule up: COCOc1cc(O)c2c(c1)OC13C(=CC4CC1C(C)(C)OC3(C/C=C(\C)CO)C4=O)C2=O (stereo not drawn)
-- reply rule not met

-- ask Next molecule up: COCOc1cc(O)c2c(c1)OC13C(=CC4CC1C(C)(C)OC3(C[C@H](O)C(C)(C)O)C4=O)C2=O (stereo partly drawn)
-- reply rule not met
